test_summary: Tissue distribution study after intravenous administration
Assay type: in vivo, Sprague-Dawley rats
applied_conditions: Sprague-Dawley, rat, iv; Intestine, 2 h, rats, i.v. 5 mg/kg, n = 5
reported_endpoint: Kp at 2 h
Answer as a number with no unit attached.

### Prompt Can you look up the measured Kp at 2 h of `O=C(/C=C/C=C/c1ccccc1)CCc1ccccc1` for me?
### Response 0.88

###

test_summary: Plasma pharmacokinetic study after single intravenous administration
Format: in vivo
applied_conditions: Sprague-Dawley, rat, rats, single i.v. 5 mg/kg, n = 12, read-out: MRT0–∞
reported_endpoint: MRT inf (h)
A number alone suffices; assume h.

### Prompt May I ask what MRT inf has been recorded for `O=C(/C=C/C=C/c1ccccc1)CCc1ccccc1` ?
### Response 1.6

###

test_summary: Tissue distribution study after intravenous administration
Assay type: in vivo, Sprague-Dawley rats
applied_conditions: Sprague-Dawley, rat, iv; Intestine, 1 h, rats, i.v. 5 mg/kg, n = 5
reported_endpoint: Kp at 1 h

### Prompt Item under review: `O=C(/C=C/C=C/c1ccccc1)CCc1ccccc1` . Reported Kp at 1 h?
### Response 0.66

###

test_summary: Tissue distribution study after intravenous administration
Assay type: in vivo, Sprague-Dawley rats
applied_conditions: Sprague-Dawley, rat, iv; Stomach, 4 h, rats, i.v. 5 mg/kg, n = 5
Method: The rat was sacrificed quickly by decapitation on the ice. The various tissues (heart, liver, spleen, lung, kidney, brain, stomach, intestine) were harvested and rinsed with ice-cold 0.9% NaCl to remove the superficial blood. […] The mobile phase consisted of methanol and 0.1% formic acid water using a gradient dilution at a flow rate of 0.3 mL/min. […] Alnustone was quantitatively determined with MRM in the positive ion mode, and nitrogen was used to assist nebulization in the ESI source. […]
reported_endpoint: Kp at 4 h
Just the number.

### Prompt Would you kindly share the measured Kp at 4 h for `O=C(/C=C/C=C/c1ccccc1)CCc1ccccc1` ?
### Response 3.66

###

test_summary: Plasma pharmacokinetic study after single intravenous administration
Assay type: in vivo
applied_conditions: Sprague-Dawley, rat, rats, single i.v. 5 mg/kg, n = 12
reported_endpoint: Cmax (ng/mL)
Report as a plain number; the unit ng/mL is understood.

### Prompt For the molecule shown here, O=C(/C=C/C=C/c1ccccc1)CCc1ccccc1 [alnustone, Alnustone] , give the reported Cmax.
### Response 7070

###

test_summary: Tissue distribution study after intravenous administration
Format: in vivo, Sprague-Dawley rats
applied_conditions: Sprague-Dawley, rat, iv; Spleen, 0.5 h, rats, i.v. 5 mg/kg, n = 5
reported_endpoint: Kp at 0.5 h
Just the number, please.

### Prompt Fill in: Kp at 0.5 h of `O=C(/C=C/C=C/c1ccccc1)CCc1ccccc1` is ___
### Response 0.46

###

test_summary: Tissue distribution study after intravenous administration
Type: in vivo, Sprague-Dawley rats
applied_conditions: Sprague-Dawley, rat, iv; Brain, 1 h, rats, i.v. 5 mg/kg, n = 5
reported_endpoint: Kp at 1 h
Reply with the value as a number alone.

### Prompt Reported Kp at 1 h, molecule `O=C(/C=C/C=C/c1ccccc1)CCc1ccccc1` : ____
### Response 0.21

###

test_summary: Plasma pharmacokinetic study after single intravenous administration
Format: in vivo
applied_conditions: Sprague-Dawley, rat, rats, single i.v. 5 mg/kg, read-out: MRT0-t (total mean residence time up to 10 h)
reported_endpoint: MRT last (h)
Could you give me the number in h? Just the number is fine.

### Prompt Tell me the measured MRT last of `O=C(/C=C/C=C/c1ccccc1)CCc1ccccc1` , please.
### Response 1.6

Each recorded value in this set is attributed to paper PMC6749364.
